Test system: H1 or H9 human embryonic stem cells
experimentNotes: Activin A bioassay: differentiation of human embryonic stem cells to definitive endoderm, cell number and SOX17 intensity by high content analysis (96-well, four days)
Type: cell-based
assayContext: supernatant concentration 10x, assay dilution 1:20; control = R&D Sys Activin A 100 ng/ml on same plate
What Sox 17 Intensity % of control was measured for each of the following?
Answers are plain numbers, in %.

Problem: Dear colleague, please send me the reported Sox 17 Intensity % of control for ACTN2: activin A variant peptide, SEQ ID 3 (protein) GLECDGKVNLCCKKQNFVSFKDIGWNDWIIAPSGYHANECTGKCPSHIAGTSGSSLSFHSTVINHYRMRGHSPFSDLGSCCIPTKLRPMSMLYYDDGQNIIKKDIQNMIVEECGCS when you can.
Solution: 12.5

Next:
Problem: Entry ACTN20: activin A variant peptide, SEQ ID 21 (protein) GLECDGKVNLCCKKQNFVSFKDIGWNDWIIAPSGYHANKCGGLCPSHIAGTSGSSLSFHSTVINHYRMRGHSPFAQMGACCIPTKLRPMSMLYYDDGQNIIKKDIQNMIVEECGCS needs its Sox 17 Intensity % of control filled in; supply it.
Solution: 0.5

Values from patent US20110091971A1
